Value source: paper PMC12455078

Test: Pharmacokinetics of MC and its metabolites in rat plasma after a single oral dose of MC (UHPLC-MS/MS)
Format: in vivo, Sprague Dawley rats
Conditions: male, Sprague Dawley, single oral (intragastric) 100 mg/kg MC, n = 6, non-compartmental, metabolites quantified with the MC calibration curve, read-out: AUC0–48h
Description: Sprague Dawley rats (male, 220–250 g) were purchased from the SPF Biotechnology Co., Ltd. (Beijing, China). […] The MS tune parameters were set as mentioned below. […] MassLynx™ software version 4.1 was used for data acquisition and TargetLynx™ (Waters, Milford, MA, United States) was applied to quantitation. The concentrations of MC in the collected plasma samples were quantified by the established calibration curve based on peak areas of corresponding components. […]
Readout: AUC(0-t) (µM·h)

Nc1nccc(-c2cn(OS(=O)(=O)O)c3ccc(Br)cc23)n1 [M2]: 20.9

a. Nc1nccc(-c2c[nH]c3ccc(Br)cc23)n1 [MC, Meridianin C]
b. O=S(=O)(O)ONc1nccc(-c2c[nH]c3ccc(Br)cc23)n1 [M11]
### Prompt Which record shows the lower AUC(0-t): the first, a , or the second, b ? // output: label of the selected item
### Response b

----------
Assay: Pharmacokinetics of MC and its metabolites in rat plasma after a single oral dose of MC (UHPLC-MS/MS)
Type: in vivo, Sprague Dawley rats
Conditions: male, Sprague Dawley, single oral (intragastric) 100 mg/kg MC, n = 6
Readout: half-life (h)

O=S(=O)(O)ONc1nccc(-c2c[nH]c3ccc(Br)cc23)n1: 3.4

A. Nc1nccc(-c2cn(OS(=O)(=O)O)c3ccc(Br)cc23)n1
B. Nc1nccc(-c2c[nH]c3ccc(Br)cc23)n1
### Prompt Which record shows the lower half-life: the first, A , or the second, B ? // output: label of the selected item
### Response A
(A: 4.4 h, B: 17.7 h)
